Reported values of EC50 for individual entries
- experiment.description: Agonist activity at adenosine A3 receptor (unknown origin) expressed in serum starved CHO cells assessed as increase in cell survival after 24 hrs by propidium iodide staining-based assay
Your answer should be a plain number; it is taken to be in nM.

Below, 3 molecules whose answers are already recorded.
smiles.text	EC50, nM
CNC(=O)[C@@]12C[C@@H]1[C@@H](n1cnc3c(NCc4cccc(Cl)c4)nc(C#Cc4ccc(-c5ccccc5)cc4)nc31)[C@H](O)[C@@H]2O	0.251
CNC(=O)[C@@]12C[C@@H]1[C@@H](n1cnc3c(NCc4cccc(Cl)c4)nc(C#Cc4ccc5ccc6cccc7ccc4c5c67)nc31)[C@H](O)[C@@H]2O	13
CNC(=O)[C@@]12C[C@@H]1[C@@H](n1cnc3c(NCc4cccc(Cl)c4)nc(C#Cc4ccccc4)nc31)[C@H](O)[C@@H]2O	0.2

input: Fill in the blank: the reported EC50 of CNC(=O)[C@@]12C[C@@H]1[C@@H](n1cnc3c(NCc4cccc(Cl)c4)nc(C#Cc4cc5cccc6ccc7cccc4c7c65)nc31)[C@H](O)[C@@H]2O is ____.
output: 20

Recorded values, source BindingDB's records for doi:10.1021/acs.jmedchem.8b00435.
